target: Prothrombin (Homo sapiens, UniProt P00734); test: Thrombin 1536 HTS Dose Response Confirmation. [Related pubchem assays: 1046 (Thrombin 1536 HTS; hits were confirmed in this assay)]; format: functional
Calls of active or inactive are those of the source.
Would you kindly list IC50 for each of these molecules?

INSERT INTO assay_data (molecule_smiles, experimental_readout, observed_measurement) VALUES
  ('CCOc1ccccc1C(=O)Nc1nnc(SCC(=O)N2CCOCC2)s1', 'IC50', '> 50 µM (not active)');

List IC50 for every entry below, keeping the order given.
1. CCC(=O)NC(=S)Nc1cccc(NC(=O)c2ccccc2)c1
2. O=C(c1ccco1)n1nc(-c2ccccc2)nc1SCc1ccccc1
3. CC(C)(C)NC(=O)c1cc([N+](=O)[O-])ccc1N1CCCCC1
4. O=C(Oc1oc(-c2ccco2)nc1/C=N/c1ccccc1)c1ccco1
5. CCOC(=O)c1ccccc1Oc1c(F)c(F)nc(NCCO)c1F

1. > 50 µM (not active)
2. 0.695 µM (active)
3. > 50 µM (not active)
4. 1.32 µM (active)
5. > 50 µM (not active)

---

biological target: Endoribonuclease toxin MazF (Escherichia coli K-12); test: activation of MazEF endoribonuclease cleavage – biochemical, fluorescence, single-stranded RNA substrate, uHTS hits, dose response (AID 588481); type: functional
Sequence (P0AE70 whole entry): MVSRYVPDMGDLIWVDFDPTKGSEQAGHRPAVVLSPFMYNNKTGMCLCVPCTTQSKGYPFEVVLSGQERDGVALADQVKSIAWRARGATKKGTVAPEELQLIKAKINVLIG
The source made the active and inactive calls.
Experimental readout: EC50

INSERT INTO measurements (molecule_smiles, observed_measurement) VALUES
  ('CC(C)OC(=O)c1c2c(n3ccccc13)C(=O)c1ccccc1C2=O', '> 99 µM (inactive)'),
  ('O=C(CCl)NN=C(c1ccccc1)c1ccccc1', '61.2 µM (inactive)'),
  ('COC(=O)c1c(NC(=O)c2nc3ccccc3s2)sc2c1CC(C)(C)NC2(C)C', '> 99 µM (inactive)');

We now examine a further compound.
EC50 of COc1cccc(Nc2nc(-c3ccccc3O)nc3ccccc23)c1 on Endoribonuclease toxin MazF (Escherichia coli K-12)? > 99 µM (inactive)

---

target: ORF 73 (Human herpesvirus 8, UniProt O40947); test: KSHV LANA DNA-binding disruption – biochemical, fluorescence polarization, cherry-picked samples, dose response (AID 504725); design: species or system Human gammaherpesvirus 8;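 also: fluorescence polarization of a labeled DNA duplex reporting LANA DNA binding; potency is for inhibitors that block LANA binding to the DNA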
Sequence (O40947 whole entry): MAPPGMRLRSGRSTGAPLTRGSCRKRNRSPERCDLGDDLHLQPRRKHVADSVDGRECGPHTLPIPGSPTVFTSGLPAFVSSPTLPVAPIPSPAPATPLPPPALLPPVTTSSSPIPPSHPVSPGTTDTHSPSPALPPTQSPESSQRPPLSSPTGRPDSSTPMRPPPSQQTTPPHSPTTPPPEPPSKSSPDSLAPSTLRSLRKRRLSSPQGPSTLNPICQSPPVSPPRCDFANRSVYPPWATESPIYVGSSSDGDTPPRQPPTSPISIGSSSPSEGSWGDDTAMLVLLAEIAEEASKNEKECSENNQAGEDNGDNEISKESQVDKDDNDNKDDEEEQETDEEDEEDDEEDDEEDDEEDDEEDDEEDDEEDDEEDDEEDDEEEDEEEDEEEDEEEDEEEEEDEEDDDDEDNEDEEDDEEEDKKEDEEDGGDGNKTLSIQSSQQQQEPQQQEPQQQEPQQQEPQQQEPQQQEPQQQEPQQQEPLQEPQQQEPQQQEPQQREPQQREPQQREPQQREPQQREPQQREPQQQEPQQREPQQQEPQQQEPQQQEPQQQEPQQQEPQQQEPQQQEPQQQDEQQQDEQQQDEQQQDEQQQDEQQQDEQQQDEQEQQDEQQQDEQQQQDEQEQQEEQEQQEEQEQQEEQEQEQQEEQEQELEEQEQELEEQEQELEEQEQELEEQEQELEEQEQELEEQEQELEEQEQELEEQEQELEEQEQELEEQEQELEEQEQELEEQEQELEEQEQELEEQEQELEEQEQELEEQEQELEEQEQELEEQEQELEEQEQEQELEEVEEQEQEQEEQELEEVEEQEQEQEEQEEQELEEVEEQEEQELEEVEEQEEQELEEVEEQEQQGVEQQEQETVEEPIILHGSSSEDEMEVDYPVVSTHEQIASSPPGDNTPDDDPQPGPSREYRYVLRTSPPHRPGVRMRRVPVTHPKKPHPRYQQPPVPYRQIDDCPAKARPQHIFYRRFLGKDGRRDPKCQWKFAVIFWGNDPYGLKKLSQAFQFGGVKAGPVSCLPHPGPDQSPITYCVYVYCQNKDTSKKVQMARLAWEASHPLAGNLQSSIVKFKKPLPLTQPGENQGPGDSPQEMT
Active and inactive are the calls of the source.
Experimental readout: AC50

Before answering, review these 3 worked examples.
INSERT INTO measurements (compound, observed_measurement) VALUES
  ('CSc1ccc(/C=N/Nc2cccc(C(=O)O)c2)cc1', '19.8 µM (active)'),
  ('O=C(O)Cc1ccc(N=Nc2c(O)c(C(=O)O)cc3ccccc23)cc1', '33.6 µM (active)'),
  ('COC(=O)C(NC(=O)C(C)NC(=O)OCc1ccccc1)C(C)C (centres undefined)', '70.8 µM (active)');

We now examine a further compound.
// query AC50 value for entry COCCNC(=O)Nc1ccc2nc(-c3ccco3)c(-c3ccco3)nc2c1 23.5 µM (active)

---

Would you kindly list AC50 for each of these compounds?
target: Dual specificity tyrosine-phosphorylation-regulated kinase 1A (Rattus norvegicus); type: biochemical, Homo sapiens
Activity calls are given as the source filed them.

INSERT INTO measurements (molecule_smiles, experimental_readout, observed_measurement) VALUES
  ('Cc1[nH][nH]c(=O)c1N=Nc1ccccc1Cl', 'AC50', '28.9 µM (active)');

List AC50 for every entry below, keeping the order given.
1. N#CC(C#N)=C1NC(N)=C(C#N)C(c2ccccc2)=C1C#N
2. Cc1ccnc(Nc2nc(-c3ccc(O)c(O)c3)cs2)c1
3. CN(C)CCNc1ccc(CO)c2sc3ccc(O)cc3c(=O)c12
4. COCCNC(=O)c1ccc2c(c1)nc(C)n2-c1cccc(F)c1

1: 4.56 µM (active); 2: 10.1 µM (active); 3: 1.82 µM (active); 4: 98.8 µM (active)

---

target: Corticotropin-releasing factor receptor 2/Corticotropin-releasing factor-binding protein (Homo sapiens, UniProt P24387+Q13324); assay: activators of CRF receptor 2 with binding protein – uHTS hits, confirmation (AID 602473); format: functional; conditions: read-out: EC50_Mean
Sequence (Q13324 whole entry): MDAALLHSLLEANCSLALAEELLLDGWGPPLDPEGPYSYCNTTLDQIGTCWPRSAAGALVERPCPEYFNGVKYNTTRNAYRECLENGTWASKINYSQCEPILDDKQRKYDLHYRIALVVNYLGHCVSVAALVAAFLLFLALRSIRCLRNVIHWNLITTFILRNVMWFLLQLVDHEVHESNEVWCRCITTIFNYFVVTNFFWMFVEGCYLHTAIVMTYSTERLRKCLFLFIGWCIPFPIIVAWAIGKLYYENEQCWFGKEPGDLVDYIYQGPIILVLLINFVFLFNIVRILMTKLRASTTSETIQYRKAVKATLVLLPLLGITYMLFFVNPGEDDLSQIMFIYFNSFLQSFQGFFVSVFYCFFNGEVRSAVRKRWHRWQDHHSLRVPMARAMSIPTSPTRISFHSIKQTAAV
Sequence (P24387 whole entry): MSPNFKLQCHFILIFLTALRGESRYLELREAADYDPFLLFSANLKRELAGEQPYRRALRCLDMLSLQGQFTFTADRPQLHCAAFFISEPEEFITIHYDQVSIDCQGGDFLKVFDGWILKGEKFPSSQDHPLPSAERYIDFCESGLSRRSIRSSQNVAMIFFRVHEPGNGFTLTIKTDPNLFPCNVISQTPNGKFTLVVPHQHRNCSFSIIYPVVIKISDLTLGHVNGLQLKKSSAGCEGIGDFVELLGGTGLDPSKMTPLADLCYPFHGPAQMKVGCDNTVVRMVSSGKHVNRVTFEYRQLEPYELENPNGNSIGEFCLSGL
Calls of active or inactive are those of the source.
Use one of these outcomes when replying: active, inactive

Example entries begin here.
INSERT INTO measurements (compound, assigned_label) VALUES
  ('CCc1ccccc1N1C(=O)C2CC(C)=C(C)CC2C1=O (stereo not drawn)', 'inactive'),
  ('COc1ccc2c(c1)OC(O)(C(F)(F)C(F)F)CC2=O (stereo not drawn)', 'active'),
  ('Nc1nc(F)nc2c1ncn2[C@@H]1O[C@H](CO)[C@@H](O)[C@@H]1O [FLUDARABINE]', 'inactive');

We now examine a further compound.
Any idea what this test logged for O=C(Nc1nc2ccc(S(=O)(=O)N3CCCC3)cc2s1)c1ccccn1 ? inactive

---

Would you kindly list EC50 for each of these molecules?
target: Heat shock factor protein 1 (Mus musculus); test: decrease of HSF1-responsive luciferase luminescence – cell-based, NIH3T3, dose retest, confirmation (AID 2382); format: functional;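 also: NIH3T3 fibroblasts with HSF1-driven luciferase reporter stressed by proteasome inhibitor MG132; luminescence from HSF1-driven luciferase expression after 8 hours of MG132 stress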
Sequence (P38532 whole entry): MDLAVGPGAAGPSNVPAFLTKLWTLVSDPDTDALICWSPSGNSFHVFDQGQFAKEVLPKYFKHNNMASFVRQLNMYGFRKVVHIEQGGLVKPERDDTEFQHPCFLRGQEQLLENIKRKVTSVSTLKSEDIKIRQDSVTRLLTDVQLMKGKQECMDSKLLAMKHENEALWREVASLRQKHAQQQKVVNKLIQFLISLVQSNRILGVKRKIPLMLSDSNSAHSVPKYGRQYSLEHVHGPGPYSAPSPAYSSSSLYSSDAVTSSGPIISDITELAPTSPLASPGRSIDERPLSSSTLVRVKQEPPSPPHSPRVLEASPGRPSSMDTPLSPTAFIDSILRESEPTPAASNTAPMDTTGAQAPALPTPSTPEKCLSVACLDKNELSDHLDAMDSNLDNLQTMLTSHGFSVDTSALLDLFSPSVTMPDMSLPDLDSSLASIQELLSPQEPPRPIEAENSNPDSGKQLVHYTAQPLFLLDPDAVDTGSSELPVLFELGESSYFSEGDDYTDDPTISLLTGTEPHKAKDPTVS
Calls of active or inactive are those of the source.

List EC50 for every entry below, keeping the order given.
1. COc1ccc(CCNC(=O)CSc2ccc(-c3ccco3)nn2)cc1
2. CCOC(=O)c1c(C)n(C)c2ccc(OC)c(NC(=O)CN3CCSCC3)c12
3. Cc1cc(C)n(CC(C)NC(=O)c2cc(COc3ccc(F)c(F)c3)on2)n1 (centres undefined)
4. COc1cc(NS(=O)(=O)c2csc(C(N)=O)c2)cc(OC)c1
5. CCN(c1ccc(OC)cc1)c1[nH]cnc2ncnc1-2

1: > 195 µM (not active); 2: > 195 µM (not active); 3: > 195 µM (not active); 4: > 195 µM (not active); 5: 21.8 µM (active)

---

Would you kindly list AC50 for each of these molecules?
target: FAD-linked sulfhydryl oxidase ALR (Homo sapiens, UniProt P55789); test: ALR-catalysed DTT oxidation blockers – biochemical, H2O2 detection, luminescence, cherry-pick, dose response (AID 493248)
Sequence (P55789 whole entry): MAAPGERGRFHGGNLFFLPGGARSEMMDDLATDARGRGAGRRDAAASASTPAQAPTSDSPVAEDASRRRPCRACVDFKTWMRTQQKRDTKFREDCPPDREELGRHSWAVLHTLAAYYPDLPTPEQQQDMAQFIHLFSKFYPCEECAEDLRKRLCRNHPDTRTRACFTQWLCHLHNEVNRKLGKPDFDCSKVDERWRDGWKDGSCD
The source made the active and inactive calls.

List AC50 for every entry below, keeping the order given.
1. Cc1c(CCC(=O)N[C@@H](C)C(=O)O)c(=O)oc2c(C)c3oc4c(c3cc12)CCCC4
2. Nc1ccc(NC(=O)c2ccco2)c(Cl)c1
3. NC(=NO)c1ccc(NC(=O)c2ccc(Br)o2)cc1
4. COc1ccc(CSC2=NCCN2)cc1Br
5. Cc1cc2c(s1)Nc1ccccc1N=C2N1CCN(C)CC1
6. O=C1CSC(NC(=O)N2c3ccccc3Sc3ccccc32)=N1
7. O=C1CC(NNc2ccccc2)C(=O)N1c1cccc(Cl)c1 (stereo unspecified)

["3720 nM (active)", "1720 nM (active)", "160 nM (active)", "7 nM (active)", "369 nM (active)", "335 nM (active)", "319 nM (active)"]

List AC50 for every entry below, keeping the order given.
1. N#CCC(=O)Nc1sc2c(c1C(N)=O)CCCC2
2. CC1CC/C(=N/Nc2ccccc2)C(=O)N1 (stereo unspecified)

1: 14400 nM (active); 2: 623 nM (active)

List AC50 for every entry below, keeping the order given.
1. CC(C(=O)Nc1ccc(S(N)(=O)=O)cc1)N1CCc2ccccc21 (stereo unspecified)
2. CCc1ccc(-c2csc3[n+]2CCN3C(C)=O)cc1

1: 1800 nM (active); 2: 3620 nM (active)

---

target: Paired box protein Pax-8 (Homo sapiens, UniProt Q06710); assay: PAX8 transcriptional activity inhibition in RMG-I – RMG-I cells, luciferase, cherry-pick, dose response (AID 687027); format: functional, cell-based;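 also: luciferase reporter driven by Pax8 target thyroperoxidase promoter measured by SteadyGlo luminescence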
Sequence (Q06710 whole entry): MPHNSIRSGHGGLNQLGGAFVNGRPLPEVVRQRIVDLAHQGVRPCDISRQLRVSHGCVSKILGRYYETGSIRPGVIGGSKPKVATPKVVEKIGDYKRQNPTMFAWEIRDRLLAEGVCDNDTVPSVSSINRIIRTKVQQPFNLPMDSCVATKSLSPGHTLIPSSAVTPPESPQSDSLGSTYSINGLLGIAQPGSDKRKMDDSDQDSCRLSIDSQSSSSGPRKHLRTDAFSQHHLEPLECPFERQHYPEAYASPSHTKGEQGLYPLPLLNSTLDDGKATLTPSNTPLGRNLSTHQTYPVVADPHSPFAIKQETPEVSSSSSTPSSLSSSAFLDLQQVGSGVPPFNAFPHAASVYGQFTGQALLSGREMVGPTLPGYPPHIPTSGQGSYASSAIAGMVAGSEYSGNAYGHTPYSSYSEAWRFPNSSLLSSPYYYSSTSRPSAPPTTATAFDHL
Calls of active or inactive are those of the source.
Experimental readout: AC50

Before answering, review these 2 worked examples.
INSERT INTO results (molecule_smiles, observed_measurement) VALUES
  ('CN(C)CCNc1ccc(CO)c2sc3ccc(O)cc3c(=O)c12', '5.72 µM (active)'),
  ('O=c1ccc2ccccc2c2ccccc12', '6.07 µM (active)');

List AC50 for every entry below, keeping the order given.
1. Cc1cccc(NC(=O)CC23CC4CC(C2)CC(n2nnc(C)n2)(C4)C3)c1
2. Cc1cccc(S(=O)(=O)N2CC[C@@H]3[C@H](CO)N(C)c4ccc(-c5ccc(C#N)cc5)cc4[C@@H]32)c1
3. C[C@H]1CCCCO[C@@H](CN(C)C(=O)Nc2ccc(C(F)(F)F)cc2)[C@@H](C)CN([C@@H](C)CO)C(=O)c2cc(NS(=O)(=O)c3cn(C)cn3)ccc2O1

1: 37.1 µM (active); 2: 10.1 µM (active); 3: 17.9 µM (active)

List AC50 for every entry below, keeping the order given.
1. O=C(Nc1ccc([N+](=O)[O-])cc1)Nc1nc(-c2ccc(Cl)s2)cs1
2. O=C(Cn1ncc(Cl)c(Cl)c1=O)N1CCN(S(=O)(=O)c2ccc3ccccc3c2)CC1
3. C[C@@H]1CN([C@H](C)CO)C(=O)c2cc(NC(=O)Nc3ccc(C(F)(F)F)cc3)ccc2O[C@@H](C)CCCCO[C@H]1CN(C)C(=O)Nc1ccc(F)cc1

["2.42 µM (active)", "2.51 µM (active)", "1.41 µM (active)"]
